# System: MS2 coat protein
# PROCEDURE DETAILS: apparent KD of MS2 coat protein, switch OFF state (with FMN for OFF switches, without FMN for ON switches); designed switch direction (-1 OFF switch, 1 ON switch): -1; higher = weaker reporter binding
# TEST CONDITIONS: FMN input: 0 or 200 uM; Eterna round: R93 (includes R88 designs)
ENDPOINT: apparent KD of MS2 coat protein (nM)
# unit: nM | format: bare number

{"MACROMOLECULE SEQUENCE": "GCUUGUCAAGGAUAUACAUGAGGAUCACCCAUGUGAGAGAAAAAAGUGAGAAAGAAAAGUAGAAGGUGGUGAGG [salish99-ex3-78]", "ASSAY SYSTEM": "MS2 coat protein", "UNIT ABBREVIATION": "nM", "RECORDED RESULT": 46.6}
{"MACROMOLECULE SEQUENCE": "AGGAUGUCAGGAUAUGCGUGAAGAAUAAAACAAAUAACAACGCAGAAGGGACAUGAGGAUCACCCAUGUUAAGA [May 46]", "ASSAY SYSTEM": "MS2 coat protein", "UNIT ABBREVIATION": "nM", "RECORDED RESULT": 68.3}
{"MACROMOLECULE SEQUENCE": "AAAUCAGUAGGAUAUACGAUUUUAUGCUAGAUAGAGGAACCACAUGAGGAUCACCCAUGUAGAAGGACUAGAUA [EX2 Malc#24]", "ASSAY SYSTEM": "MS2 coat protein", "UNIT ABBREVIATION": "nM", "RECORDED RESULT": 16.4}
{"MACROMOLECULE SEQUENCE": "AAUAUGUCAGGAUAUGUGUAAAGAAUAAAAGAAAUAACAACACAGAAGGGACAUGAGGAUCACCCAUGUCAACA [May 33]", "ASSAY SYSTEM": "MS2 coat protein", "UNIT ABBREVIATION": "nM", "RECORDED RESULT": 18}
{"MACROMOLECULE SEQUENCE": "AGGAAACAUGAGGAUCACCCAUGUGAGGAUAUAGAAAAGAAAAGAAAAGAAAGAAGAACUAGAAGGUACAAGAA [Menkauhor Kaiu]", "ASSAY SYSTEM": "MS2 coat protein", "UNIT ABBREVIATION": "nM", "RECORDED RESULT": 26.8}

Task item: Fill in the blank: the reported apparent KD of MS2 coat protein of AAAGGACUAGGAUAUACAUGAGGAUCACCCAUGUAAAAAACAUAAUAAAAGAACUUAUGUAGAAGGAGUCCAAA [69%, Moding Meechl, 9] is ____.
Reply: 93.7

Task item: Please report the recorded apparent KD of MS2 coat protein for GGGCCACAUGAGGAUCACCCAUGUAAGGAUAUGCUAGGGAUGGAAACCAUUACGCAAAGCAGAAGGUACUAAAG [Janelle Amethyst 18 Mod 10 - Jieux - Exclusion 1] .
Reply: 28.2

Task item: Requested field: apparent KD of MS2 coat protein. Item: AAAGGACAUGAGGAUCACCCAUGUGAGGAUAUCGGAAAAGGAAAAAUAAAAAAGAAGACGAGAAGGCACACCAA [Mat - Exclusion 1 - Eli mod - D76]
Reply: 59.8

Task item: Which apparent KD of MS2 coat protein value belongs to AAAAAACAUGAGGAUCACCCAUGUAAGGAUAUGCUAGGAAAAAGAAAAAUAAAAACUAGCAGAAGGUACAUAAA [JL wbt mod 10] ?
Reply: 30.6

Task item: Given the entry AAAAAACAUGAGGAUCACCCAUGUCAGGAUAUCCGGUUCUUGAAAAAAAAGAGGCGUUGGAGAAGGGACAUUCC [Chica Displaced 13 - Jieux - Exclusion 1] , report its measured apparent KD of MS2 coat protein.
Reply: 38.7

Task item: Which apparent KD of MS2 coat protein value belongs to AAAGGACGAGGAUAUACAUGAGGAUCACCCAUGUAAAAAGCAUAAUAAAAUAACUUAUGUAGAAGGCGUCCAAA [Mat - Exclusion 3 - Eli mod - D91] ?
Reply: 102

Task item: Tell me the measured apparent KD of MS2 coat protein of AAAAAACAUGAGGAUCACCCAUGUGAGGAUAUACUAAACAAAAAAAACAAAAACAAAUGUAGAAGGCACAAAAA [Amethyst 36] , please.
Reply: 23

Task item: Please report the recorded apparent KD of MS2 coat protein for AAGAAGUGAGGAUAUGUCUGUGCGAAAAAAAAAAAGUGCAGACAGAAGGCACAUGAGGAUCACCCAUGUAAAAA [Florian 65% 2] .
Reply: 48.1
